Tested on: MDR1
measurement description: In vitro MDCK-MDR1 permeability
Type: in vitro ADME
conditions used: dog, MDCK-MDR1, pH 7.4; MDR1-MDCKII monolayer, 2 μM, 150 minutes, pH 7.40
measured metric: Papp A→B at 150 min, 2 μM (×10⁻⁶ cm/s)
Give just the number in ×10⁻⁶ cm/s; leave the unit off.

Consider C[C@@H]1CN(C(=O)[C@@H]2CN(C3CCOCC3)C[C@H]2c2ccc(F)cc2F)C[C@H](C)N1c1ccc(F)cc1 (single isomer, unassigned) . Its measured Papp A→B at 150 min, 2 μM is 13.5

* * *

measurement description: Drug concentration in brain tissues of rats, oral gavage
Assay type: in vivo
conditions used: SD, brain, rat, p.o. 20 mg/kg, 4 hours, read-out: Brain drug concentration
measured metric: concentration at 4 h (µM)
Field: numeric (µM). Do not append units.

The molecule listed as C[C@@H]1CN(C(=O)[C@@H]2CN(C3CCOCC3)C[C@H]2c2ccc(F)cc2F)C[C@H](C)N1c1ccc(F)cc1 (single isomer, unassigned) has a reported concentration at 4 h of 11.4

* * *

measurement description: Pharmacokinetic parameters in rat plasma
Assay type: in vivo, SD rats
conditions used: SD, po, p.o. 5 mg/kg
measured metric: Tmax (h)
Give just the number in h; leave the unit off.

Tmax reading for C[C@@H]1CN(C(=O)[C@@H]2CN(C3CCOCC3)C[C@H]2c2ccc(F)cc2F)C[C@H](C)N1c1ccc(F)cc1 (single isomer, unassigned) [Compound 7] : 1

* * *

measurement description: Drug concentration in brain tissues of rats, oral gavage
Type: in vivo
conditions used: SD, brain/plasma, rat, p.o. 20 mg/kg, 4 hours
measured metric: Kp uu at 4 h
Give your answer as a number; write no unit.

Value of measured Kp uu at 4 h for the entry C[C@@H]1CN(C(=O)[C@@H]2CN(C3CCOCC3)C[C@H]2c2ccc(F)cc2F)C[C@H](C)N1c1ccc(F)cc1 (single isomer, unassigned) [Compound 7] : 1.3

* * *

measurement description: Pharmacokinetic parameters in rat plasma
Assay type: in vivo, SD rats
conditions used: SD, iv, i.v. 2 mg/kg
measured metric: Vd (L/kg)
// units = L/kg; emit number, no label

get_value(item= C[C@@H]1CN(C(=O)[C@@H]2CN(C3CCOCC3)C[C@H]2c2ccc(F)cc2F)C[C@H](C)N1c1ccc(F)cc1 (single isomer, unassigned) , readout=Vd) returns 8

* * *

measurement description: Drug concentration in brain tissues of rats, oral gavage
Type: in vivo
conditions used: SD, brain/plasma, rat, p.o. 20 mg/kg, 1 hour, read-out: Brain-to-blood ratio
measured metric: Kp at 1 h
The reply should be a number, written without any unit.

C[C@@H]1CN(C(=O)[C@@H]2CN(C3CCOCC3)C[C@H]2c2ccc(F)cc2F)C[C@H](C)N1c1ccc(F)cc1 (single isomer, unassigned) [Compound 7] yielded Kp at 1 h of 10.8

* * *

target desc: MC3R (Homo sapiens)
Construct: expressed in transfected cells
Sequence (P41968 whole entry): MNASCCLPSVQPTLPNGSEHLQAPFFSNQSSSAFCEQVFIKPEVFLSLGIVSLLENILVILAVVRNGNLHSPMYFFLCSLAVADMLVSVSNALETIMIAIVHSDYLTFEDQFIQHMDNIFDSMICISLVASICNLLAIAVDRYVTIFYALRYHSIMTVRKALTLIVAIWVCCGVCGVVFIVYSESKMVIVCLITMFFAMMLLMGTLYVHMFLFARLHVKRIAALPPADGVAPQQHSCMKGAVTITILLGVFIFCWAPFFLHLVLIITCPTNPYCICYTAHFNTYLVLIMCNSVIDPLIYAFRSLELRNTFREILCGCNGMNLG
measurement description: In vitro activity of MCR receptors, intracellular cAMP signal (HEK293T/MCR cell line), MC3R
Format: cell-based
Counter-ions that a name gives are not always drawn.
Reported EC50 by item:
All answers are understood in nM, so give the number only.

Sample answers from the record:
- compound: "CC1CC(N2CC(C(=O)N3C[C@@H](C)N(c4ccc(F)cc4)[C@@H](C)C3)C(c3ccc(F)cc3F)C2)CCO1 (single isomer, unassigned) [Compound 22a]"
  measured metric: "EC50"
  result: 265
- compound: "C[C@@H]1CN(C(=O)[C@@H]2CN(C3CCOCC3)C[C@H]2c2ccc(F)cc2F)C[C@H](C)N1c1ccc(F)c(F)c1 [Compound 14]"
  measured metric: "EC50"
  result: 672
- compound: "C[C@@H]1CN(C(=O)C2CN([C@H]3CCO[C@@H](C)C3)C[C@H]2c2ccc(F)cc2F)C[C@H](C)N1c1ccc(F)cc1 (stereo partly drawn) [Compound 22d]"
  measured metric: "EC50"
  result: 696
- compound: "C[C@@H]1CN(C(=O)[C@@H]2CN(C3CCOCC3)C[C@H]2c2ccc(F)cc2F)C[C@H](C)N1c1ccc(Cl)cc1 [Compound 15]"
  measured metric: "EC50"
  result: 574
- compound: "C[C@@H]1CN(C(=O)[C@@H]2CN(C(C)(C)C)C[C@H]2c2ccc(F)cc2F)C[C@H](C)N1c1ccccc1 [Hydrochloride salt of compound 6]"
  measured metric: "EC50"
  result: 2030

// next item, EC50 requested
response.value for CCC(C)(C)N1CC(C(=O)N2C[C@@H](C)N(c3ccc(F)cc3)[C@@H](C)C2)[C@H](c2ccc(F)cc2F)C1 (stereo partly drawn) [Compound 23] (field: EC50) = 316
